Numbers sourced from ChEMBL document CHEMBL5303304.

System: U2OS
protocol details: Incucyte cell viability with U2OS; further: unitless GR value; below 1 slowed growth and below 0 cell loss
Assay type: toxicity, cell-based
conditions: human, 6 h, 10 µM, compound concentration 10 uM, replicate number 2
Classes based on Growth Rate: b0 = under 0.5, b1 = from 0.5 up to 0.8, b2 = 0.8 and over

>>> assigned_label("Cc1cc([N+](=O)[O-])c(NS(=O)(=O)c2cccc(C(=O)O)c2)cc1-c1cccnc1")
"b0"
>>> assigned_label("COc1cc2c(cc1CC=C(C)C)C(=O)C[C@@H](c1ccc(O)cc1)O2")
"b2"
>>> assigned_label("COc1ccc(CC[C@@H](OC(=O)[C@@H]2CCCCN2C(=O)[C@H](c2cc(OC)c(OC)c(OC)c2)C2CCCCC2)c2cccc(OCCN3CCOCC3)c2)cc1OC")
"b2"
>>> assigned_label("Cc1nc2cccnc2n2c(-c3cc(C(C)(C)O)ncc3Cl)nnc12")
"b0"
>>> assigned_label("CCc1cnn2c(NCc3ccc[n+]([O-])c3)cc(N3CCCCC3CCO)nc12 (stereo not drawn)")
"b0"
>>> assigned_label("CS(=O)(=O)O.C[C@H](NC(=O)c1cnc2n1[C@](C)(Cc1ccc(C#N)cc1)C(=O)N2c1cc(Cl)c(F)c(Cl)c1)C(=O)NC1(c2ccccn2)CC1")
"b1"
>>> assigned_label("O=C(Nc1cccc(C(F)(F)F)c1)c1cc(Cl)ccc1O")
"b1"
>>> assigned_label("c1ccc2c(c1)SCc1c-2[nH]c2ccccc12")
"b0"
>>> assigned_label("CCN1C(=O)/C(=C(\\NC2CCN(C)CC2)c2ccc3c(c2)OCO3)c2cc(C(C)=O)ccc21")
"b1"
>>> assigned_label("CC(C)c1cnn2c(NCc3ccccc3)cc(NCCCCCCN)nc12.Cl")
"b1"
>>> assigned_label("Cl.Cl.Fc1ccc([C@@H]2CCNC[C@H]2COc2ccc3c(c2)OCO3)cc1.Fc1ccc([C@@H]2CCNC[C@H]2COc2ccc3c(c2)OCO3)cc1.O [PAROXETINE HYDROCHLORIDE]")
"b2"
>>> assigned_label("COc1cc(-c2cn[nH]c2)ccc1C(=O)Nc1ccc2c(c1)CCNCC2.Cl")
"b1"
>>> assigned_label("COc1cc(N)c(Cl)cc1C(=O)NC1CN2CCC1CC2.Cl (stereo not drawn)")
"b2"
>>> assigned_label("Cc1nnc2n1-c1sc(CCC(=O)N3CCOCC3)cc1C(c1ccccc1Cl)=NC2")
"b2"
>>> assigned_label("O=C(N[C@@H]1C2CCN(CC2)[C@H]1Cc1cccnc1)c1cc2ccccc2o1")
"b1"
>>> assigned_label("O=C(Nc1ccc(-n2nc(-c3cccnc3)cc2C(F)(F)F)cn1)c1ccc(-c2ccccc2)c(F)c1")
"b0"
>>> assigned_label("Cc1onc(-c2ccc(F)cc2)c1COc1ccc(C(=O)N2CCS(=O)(=O)CC2)cn1")
"b1"
